# reported activation; entries follow
# targetOrTestSystem: D(2) dopamine receptor (Homo sapiens) (UniProt P14416)
# Sequence (P14416 whole entry, looked up): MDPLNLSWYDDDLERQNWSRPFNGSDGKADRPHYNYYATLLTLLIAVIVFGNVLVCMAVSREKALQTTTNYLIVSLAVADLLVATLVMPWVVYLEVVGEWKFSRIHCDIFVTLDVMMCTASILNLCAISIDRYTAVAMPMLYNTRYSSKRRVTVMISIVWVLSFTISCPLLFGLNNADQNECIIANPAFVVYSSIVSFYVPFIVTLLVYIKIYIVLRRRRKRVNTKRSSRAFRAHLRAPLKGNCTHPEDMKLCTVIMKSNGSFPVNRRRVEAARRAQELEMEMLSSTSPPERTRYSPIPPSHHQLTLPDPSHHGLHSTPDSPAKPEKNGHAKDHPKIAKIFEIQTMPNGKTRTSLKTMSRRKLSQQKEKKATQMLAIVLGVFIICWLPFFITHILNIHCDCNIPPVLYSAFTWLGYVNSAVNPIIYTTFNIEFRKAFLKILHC
# assayDetails: HTS Assay for Allosteric Agonists of the Human D2 Dopamine Receptor: Primary Screen for Agonists; further: 0% is about no effect
# measurementConditions: HEK293 T-REx D2 cells, calcium flux agonist mode; at 2 µM; stronger effect = higher value
About 1,800 (0.53%) of roughly 340,000 compounds were called active. The full list was thinned out, with actives kept by preference.
State the answer as a number, implicitly in %.

COc1cccc(CNC(=O)c2cc(=O)[nH]c3ccc(S(=O)(=O)N4CCCCC4)cc23)c1    0.436
Cc1cc(=O)c2cc(C(=O)Nc3cccc(C)c3C)ccc2[nH]1    1.06
COc1ccc(-c2nc3nc(C)cc(C)n3c2Nc2c(C)cccc2C)cc1    2.98
COc1ccc(NC(=O)CN2CCCN(Cc3ccccc3)S2(=O)=O)cc1    -1.11

Attention now turns to another entry.
Determine from records and report activation for `CCOC(=O)N1CCN(c2c(NCCN3CCN(c4ccccc4F)CC3)c(=O)c2=O)CC1` 10.4
